Where do these numbers come from? They come from PubChem BioAssay (NCI).

System: OVCAR-8 ovarian
ASSAY: NCI-60 one-dose screen, 48 h
ASSAY_SETUP: 10 µM unless noted
About 83,000 compounds went through this panel and 20% of them were active in at least one assay; those are over-represented in the sample as a whole. Calls of active or inactive are those of the source. Rule for the calls: active = growth percent below 10; inactive = the rest.
Bench note: report the call from active, inactive

I'd appreciate the recorded outcome for CCOc1ccc(C2N(c3cc(OC)c(OC)c(OC)c3)C(=O)C2(F)F)cc1 (centres undefined) from this test.
inactive

Test call, this molecule: NS(=O)(=O)c1ccc(C2C3=C(CCCC3=O)OC3=C2C(=O)c2ccccc2C3=O)cc1 (centres undefined)
active

Just curious, what result did `COC(=O)c1ccc(NC(=O)CSc2nc(-c3ccc(F)cc3)nc3ccccc23)cc1` get here?
inactive

For this molecule, state the assay outcome: `CCOC(=O)c1c(C)nc2c(c1N)CC(=O)N2CCc1ccccc1`
inactive

---

Tested on: HS 578T breast
ASSAY: NCI-60 one-dose screen, 48 h (100 = growth as untreated, 0 = no growth, -100 = all killed)
ASSAY_SETUP: 10 µM unless noted
This is part of a sample that, as a whole, favours compounds with a hit. Of some 83,000 tested, about 20% had one in any assay.
READOUT_TYPE: growth (%)
Give the value in % but do not write % after it.

State, in one line, measured growth of `N#Cc1c(-c2ccc(F)cc2)nc(N/N=C/c2c[nH]c3ccccc23)nc1N1CCOCC1`
34.4

Provide growth value for the following molecule: `Cc1c(C(=O)Nc2nc3ccccc3[nH]2)cnn1-c1ccccn1`
112

Query growth for `O=C1c2ccccc2C(=O)c2c1oc1c2c(=O)[nH]c2ccccc21`
88.3

Determine from records and report growth for `NS(=O)(=O)c1ccc(N2Cc3cc(Cl)ccc3OC3=C2C(=O)N(CC2CCCCC2)C3=O)cc1`
14.5

Please report growth for the following molecule: c1ccc2c3c([nH]c2c1)C(c1ccc(C2NCCc4c2[nH]c2ccccc42)cc1)NCC3 (configuration not stated)
-16.8

# return recorded growth for entry COc1cc(C2=NN(C(C)=O)C(c3cccc(Nc4ccnc5cc(C(F)(F)F)ccc45)c3)C2)cc(OC)c1OC (configuration not stated)
76.6

Answer with reported growth of `C[C@H](Oc1cc(-c2cnn(C3CCNCC3)c2)cnc1N)c1c(Cl)ccc(F)c1Cl`
56.5

Given the molecule `COc1cc(/C=C/C(=O)c2cccs2)ccc1OCc1ccc(Cl)nc1` , write its reported growth.
104

Answer with the recorded growth of `C/C(=N/Nc1nc2ccccc2n1C)c1ccccn1` only.
44.5

Please give measured growth of the following entry: `CN(C)CSc1nc2ccccc2s1`
116

Give the reported growth for this molecule. `COc1cc(NC(=O)Nc2cnc(Nc3ccc(N4CCOCC4)cc3)nc2Oc2ccc(F)cc2)cc(OC)c1`
85.7

Recall and state the measured growth for `COc1cc(NC(=O)c2cc(O)c(C/C=C(\C)CCC=C(C)C)c(O)c2)cc2c1O[C@]1(C)CC[C@@H](O)C(C)(C)[C@H]1C2` .
18.4

---

System: RPMI-8226 leukemia
ASSAY: NCI-60 one-dose screen, 48 h
ASSAY_SETUP: 10 µM unless noted
About 83,000 compounds went through this panel and 20% of them were active in at least one assay; those are over-represented in the sample as a whole. The source made the active and inactive calls. How the source made its calls: active means growth percent below 10; inactive means the rest.
Allowed answers: true = active, false = inactive

Write down the call the test reported for this compound. Item: Nc1ccc(C2=NN(C(=O)c3cc(-c4ccc(Cl)cc4)nc4ccccc34)C(c3ccccc3)C2)cc1 (configuration not stated)
true

Give the logged outcome of this assay for the following compound: `C(=C\c1cn(-c2ccccc2)nc1-c1ccccc1)/c1nnc(-c2c[nH]c3ccccc23)o1`
false

Can you look up the reported call for `CN1CC=C(c2cc(NC(=O)Nc3ccc(Oc4ccnc(NC(=O)C5CC5)c4)c(F)c3)cc(C(F)(F)F)c2)CC1` for me?
true

Assay result, entry O=C1NC(c2ccc(F)cc2)N=C2C(c3ccccc3)=NOC12 (configuration not stated) — outcome?
false

In this assay, the call recorded for `Fc1ccc(N/N=C/c2ccc(-n3cccn3)cc2)cc1` was what?
false

I'd appreciate the recorded outcome for COc1ccc(C(C)c2cc(OC)c(OC)c(OC)c2)cc1 (configuration not stated) from this test.
false

Give the logged outcome of this assay for the following compound: `COc1ccc2nc(-c3ccc(Cl)cc3)cc(-c3nnc(SCC(=O)Nc4ccc(/C(C)=N\O)cc4)o3)c2c1`
false

// param item: CC1CCCN(CCCCCOc2ccc3oc4ccc(Cl)cc4c(=O)c3c2)C1 (configuration not stated) ; yields the recorded call
false

Identify the outcome logged in this assay for the compound shown: `CCOC(=O)CC[C@H](NC(=O)c1ccc(NC)c2ccccc12)C(=O)OCC`
false

// outcome(item) with item = `Nc1c(C(=O)Nc2ccccn2)sc2nc3c(cc12)CCCCC3`
false

Could you kindly confirm the outcome this assay logged for `COc1ccc(/C=C/C(=O)c2ccc(NC(=O)CSc3nnc(-c4ccc(OC)c(OC)c4)n3-c3ccccc3)cc2)cc1` ?
true

Can you look up the reported call for `CC[C@]12C=CCN3CC[C@@]4(c5ccc(OC)cc5N(C)[C@H]4[C@@](O)(C(=O)OC)[C@@H]1OC(=O)CCC(=O)O[C@H]1CC[C@H]4[C@@H]5CC[C@H]6CC(=O)CC[C@]6(C)[C@H]5CC[C@]14C)[C@@H]32` for me?
true

Outcome? `C=C1C(=O)O[C@H]2[C@H]1CC/C(COC(=O)N1CCC[C@H]1C(=O)Nc1ccc(OC)c(C(N)=O)c1O)=C\CC[C@@]1(C)O[C@@H]21`
true

Could you check what this test reported for `O=[N+]([O-])c1ccc(Oc2ccc(-c3ccccc3)cc2)cc1` ?
false

Name the outcome recorded for `CC(=O)Oc1ccc(O)cc1` in the assay.
false

# fetch the recorded call for `CC1CCN(CCCCCOc2ccc3oc4cc(Cl)ccc4c(=O)c3c2)CC1` here
false

Recorded test call requested for `O=C(CCCCCCCCC(=O)Nc1cccc(C2=NCCN2)c1)Nc1cccc(C2=NCCN2)c1`
false

Would you mind telling me which call this test gave `Nc1c(C(=O)Nc2cccc3ccccc23)sc2nc3c(cc12)COCC3` ?
false

// return assay outcome for `CC1=C(CCCOC(=O)NCCCl)C2=C(C)C3(CC3)[C@@](C)(O)C(=O)C2=C1`
false

Lab log entry: O=C1NN(c2ccccc2)C(c2ccc(Cl)cc2)N2CCC[C@H]12 (some centres not stated) — outcome as called in the assay?
false

Which outcome did this test record for the compound O=c1c2ccccc2n(CC(O)CN2CCCC2)c2c(Br)cccc12 (configuration not stated) ?
false

Could you check what this test reported for `O=C(O)COc1ccc2c(=O)c3sc4c(=O)c5ccccc5c(=O)c4c3c(=O)c2c1` ?
false

Hello, I am checking results. What call was entered for `CCCn1c2cc(OCc3cn(-c4ccc(Br)cc4)nn3)ccc2c2ccnc(C)c21` ?
false

What is the recorded call for this compound in the test? `COC(=O)c1ccc(NC(=O)CSc2nc(-c3ccc(F)cc3)nc3ccccc23)cc1`
false

Record request — test call for `C=CCn1c(SCC(=O)Nc2ccc(C(=O)/C=C/c3cc(OC)c(OC)c(OC)c3)cc2)nnc1-c1ccc(Cl)cc1`
true

Recorded call for `[2H]c1nc(Nc2ncc3cc(C(=O)N(C)C)n(C4CCCC4)c3n2)c([2H])c([2H])c1N1C([2H])([2H])C([2H])([2H])NC([2H])([2H])C1([2H])[2H]` ?
false

Lab log entry: NS(=O)(=O)c1ccc(C2C3=C(CCCC3=O)OC3=C2C(=O)c2ccccc2C3=O)cc1 (configuration not stated) — outcome as called in the assay?
true

---

Tested on: LOX IMVI melanoma
ASSAY: NCI-60 one-dose screen, 48 h (100 = growth as untreated, 0 = no growth, -100 = all killed)
ASSAY_SETUP: 10 µM unless noted
This is part of a sample that, as a whole, favours compounds with a hit. Of some 83,000 tested, about 20% had one in any assay. Activity calls are given as the source filed them. How the source made its calls: active means growth percent below 10; inactive means the rest.
READOUT_TYPE: growth

Could you please provide reported growth for `CCc1n(Cc2ccc3ccccc3c2)c2ccccc2[n+]1Cc1ccc2ccccc2c1` ? Thanks!
63.7% (inactive)

Give the value of growth reported for the following: `COc1cc(-c2csc(NC(=O)Nc3ccc(C(F)(F)F)cc3)n2)cc(OC)c1OC`
4.24% (active)

Indicate its recorded growth; the compound in question is `COC(=O)/C=C1\SC(=Nc2cccc(Cl)c2)N(CCc2c[nH]c3ccccc23)C1=O`
5.31% (active)

Give reported growth value for `COc1ccc(-n2cc(COc3ccc4c5ccnc(C)c5n(CC(C)C)c4c3)nn2)cc1`
77.3% (inactive)

---

System: MALME-3M melanoma
ASSAY: NCI-60 one-dose screen, 48 h (100 = growth as untreated, 0 = no growth, -100 = all killed)
ASSAY_SETUP: 10 µM unless noted
This is part of a sample that, as a whole, favours compounds with a hit. Of some 83,000 tested, about 20% had one in any assay.
READOUT_TYPE: growth (%)
Answer format: numeric, % implied, no suffix.

Write down growth measured for item O=C1CC23OC(C(O)c4ccccc4N12)C1C(c2ccccc2)=NOC13 (stereo not drawn)
49.8

Provide growth value for the following compound: CCOC(=O)C1=C(C)n2nc(CC#N)c(C#N)c2NC1c1ccc(CC)cc1 (stereo not drawn)
86.8

Determine its reported growth: `O=C(CCl)N1CCCc2ccccc21`
98.3

Give the value of growth reported for the following: CCOC(=O)NC(Cc1ccccc1)c1ccccc1 (stereo not drawn)
110

Input OCCNc1nc(NCCO)nc(Nc2ccc(C3=NN(c4cc(Cl)cc(Cl)c4)C(c4ccc(C(F)(F)F)cc4)C3)cc2)n1 (stereo not drawn) , output reported growth.
29.4

Tell me its growth given CCCCC(=O)Nc1c(C(=O)Nc2ccccc2)sc2nc3c(cc12)C(OC(=O)CCCC)CCC3 (stereo not drawn) as the entry.
105

Entry `Cc1cc(C)n(-c2nc(-c3cccs3)c(C#N)c(=O)[nH]2)n1` needs its growth filled in; supply it.
92.6

Give growth for `O=C1Nc2ccc(Cl)cc2/C1=N/c1nc(-c2ccc(Cl)cc2)cs1`
22.2

Specify reported growth for the compound shown: `C#C[C@@]1(O)[C@@H](CO)O[C@@H](n2cc(-c3ccco3)c3c(N)ncnc32)[C@@H]1O`
59.4

Look up and state reported growth for `COCCOC(=O)COc1ccc(OC)cc1`
97

Return the recorded growth value; entry: `N#Cc1c(-c2ccc(F)cc2)nc(N/N=C/c2cccc(O)c2)nc1N1CCOCC1`
100

Determine from records and report growth for `C[C@]12CC[C@@H]3c4ccc(O)cc4CC[C@H]3[C@@H]1C[C@H](O)C2`
80.5

Identify the reported growth for the following entry. `COc1cc(C)ccc1Oc1nc(Nc2ccc(N3CCOCC3)cc2)ncc1N=Cc1cc(C(F)(F)F)cc(C(F)(F)F)c1`
91.7
